Where do these numbers come from? They come from paper PMC3154745.

# assayed target: wild-type HP1a-CSD (Drosophila melanogaster)
# Sequence (P05205 131-206): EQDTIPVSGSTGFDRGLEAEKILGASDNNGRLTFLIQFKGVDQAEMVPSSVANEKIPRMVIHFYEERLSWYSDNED
# test summary: Fluorescence polarization binding assay, wild-type HP1a-CSD
No end group written: not given here.
readout type: pKd
Just the number, please; pKd means minus log10 of the concentration in mol/L.

stdin: // lookup pKd for TSRGSGDLSVKIFRGSSSGDY [PIWI peptide with HP2 pentamer]
stdout: 4.67

====

# assayed target: HP1a-CSD W200A mutant (Drosophila melanogaster, UniProt P05205, W200A)
# test summary: biochemical
No end group written: not given here.
# reported Kd; entries follow

stdin: // lookup Kd for QNISPRKLSVKINRRPYNKWLR [HP2]
stdout: > 500 µM

stdin: // lookup Kd for TSRGSGDPRVKVFRGSSSGDY [PIWI]
stdout: > 2000 µM
